B1: glmS ribozyme (parent)
chain: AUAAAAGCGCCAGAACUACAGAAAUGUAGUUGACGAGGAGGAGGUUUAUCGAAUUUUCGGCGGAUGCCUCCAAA

# Variants of: B1
# Assay Text: kcat; higher = faster cleavage; RNA array
# Condition Context: with glucosamine-6-phosphate
Variants at the floor of the assay were thinned out.
Give true when the value for kcat is at least 0.0003 s⁻¹. Give false when it is less.

Incoming: Kindly determine if kcat recorded for AUAAAAGCGCCAGAACUACAGAAAUGUAGUUGACGAGGAUGAGGUUUAUCGAGUUUUCGGCGGAUGCCUCCAAA [G40U A53G] is above or exactly 0.0003 s⁻¹.
Outgoing: true

Incoming: Another variant to look at: AUAAAAGCGCCAGAACUACAGAAAUGUAGCUGACGAGGAGGAGGUUUAUCGAAUUUUCGGCGGAUGCCUACAAA [U30C C70A]
Outgoing: false

Incoming: Then what about the variant AUAAAAGCGCCAGAAAUACAGAAAUGUAGUUGACGAGGAGGGGGUUUAUCGAAUUUUCGGCGGAUGCCUCCAAA [C16A A42G] ?
Outgoing: true

Incoming: Check AUAAAAGCGCCCGAACUACAGAAAUGUAGUUGACGAGGAGGAGGUUUAUCGAAUUUUCGGCGGAUGCCGCCAAA [A12C U69G] too.
Outgoing: false

Incoming: For AUAAAAGCGCCAGAACUACAGAAAUGUAGUUGACGAGGAGGAGGUUUAUCGAAUUAGCGGCGGAUGCCUCCAAA [U56A U57G] then?
Outgoing: false

Incoming: What about this variant? AUAAAAGCGCCAGAACUACAGAAAUGUAGUUGACGAGGAGGAGGACUAUCGAAUUUUCGGCGGAUGCCUCCAAA [U45A U46C]
Outgoing: true

Incoming: How about AUAAAAGCGCAAGAACUACAGAAAUGUAGUUGACGAGGAGGAGGUUUAUCGAAUUUUCGACGGAUGCCUCCAAA [C11A G60A] ?
Outgoing: false

Incoming: Queued: AUAAAAGCUCCAGAACUACAGAAAUGUAGUUGACGAGGAGGAGGUUUUUCGAAUUUUGGGCGGAUGUCUCCAAA [G9U A48U C58G C67U]
Outgoing: false

Incoming: Moving on to the next variant: AUAAAAGCGCCAGAACUACAGAAAUGUAGUUGUCGAGGAGGAGGUUUAUCGAAAUUUCGGCGGAUGCCUACAAA [A33U U54A C70A]
Outgoing: false

Incoming: Again, but for AUAAAAGCGCCAGAAAUACAGAAAUGUAGUUGUCGAGGAGGAGGUUUAUCGAAUUUUCGGCGGAUGCCUCCAAA [C16A A33U]
Outgoing: false

Incoming: Now give it for AUAAAAGCGCCAGAACUACAGAAAUGUAGUAGACGAGGAGGAGGUUUAUCGAUUUUUCGGCGGAUGCCUCCAAA [U31A A53U] too.
Outgoing: true

Incoming: And AUAAAAGCGCCAGAACUACAGAAAUGUAGGUGACGAGGAGGAGGUCUAUCGAAUUUUCGGCGGAUGCCUCCAAA [U30G U46C] ?
Outgoing: true

Incoming: Try the variant AUAAAAGCGCCAAAACUACAGAAAUGUAGUUGACGAGGAGGAGGUUUAUAGAAUUUUCGGCGGAUGCCUCCAAA [G13A C50A]
Outgoing: false

Incoming: Check AUAAAGGCGCCAGAACUACAGAAAUGUAGUUGACGAGGAGGAGGUUUAUGGAAUUUUCGGCGGAUGCUUCCAAA [A6G C50G C68U] too.
Outgoing: false

Incoming: Try AUAAAAGCGCCAGAACUACAGAAAUGUAGUUGACGAGGAGGAGGGUUAUCGAAUCUUCGGCGGAUGCCUCCAAA [U45G U55C] next.
Outgoing: true

Incoming: Could you do the same for AUAAAAGCGCCAGAACUACAGAAAUGUAGUUGCCGAAGAGGAGGUUUAUCGAAUUUUCGGCGGAUGCCUCCAAA [A33C G37A] , please?
Outgoing: false

Incoming: Likewise for AUAAAAGCGCCAGAACUACAGAAAUGUAGUUGAUAAGGAGGAGGUUUAUCGAAUUUUCGGCGGAUGCUUCCAAA [C34U G35A C68U] ?
Outgoing: false

Incoming: Entry AUAAAAGCGCCAGAACUACAGAAAUGUAGUUGACGAGGAGGAGGUUUAUCGAAUUUUCGGCGGAUGCCUAUAAA [C70A C71U] please
Outgoing: false

Incoming: Would you mind doing AUAAAAGCGCCAGAACUACAGAAAUGUAGUUGACGAGGUGGAGGUUUAGCGAAUUUUCGGCGGAUGCCUCCAAA [A39U U49G] as well?
Outgoing: true

Incoming: Next entry: AUAAAAGCGCCAGAACUACAGAAAUGUAGUUGACGAGGAGGAGGUUUAUCGAAUUUUCGGUGGAUGCCUUCAAA [C61U C70U]
Outgoing: false

Incoming: Queued: AUAAAAGCGCCAGAACUACAGAAAUGUAGUUGACGAAGAGGAGGUUUAUCGGAUUUUCGGCGGAUGCCUCCAAA [G37A A52G]
Outgoing: false

Incoming: Another: AUAAAAGCGCCAGAAUUACAGAAAUGUAGUUGACGAGGAGGAGGUUUAUCGAAUUUUCGGCGGAUCCCUCCAAA [C16U G66C]
Outgoing: true

Incoming: Try this variant next: AUAAAAGCUCAAGAACUACAGAAAUGUAGUUGACGAGGAGGAGGUUUAUCGAAUUUUCGGCGGAUGCCUCCAAA [G9U C11A]
Outgoing: false

Incoming: Next variant up: AUAAAAGCGGCAGAACUACAGAAAUGUAGUUGACGAGGAGGAGGUUUAUCGAAUUUUCUGCGGAUGCCUCCAAA [C10G G59U]
Outgoing: false

Incoming: // query: AUAAAAGCGCCAGAACUAAAGAAAUGUAGUUGACGAGGAGGAGGUUUAUCGAAUUUUCGGCGGAUGGCUCCAAA [C19A C67G]
Outgoing: true

Incoming: Param item: AUAAAUGCGCCAGAACUACAGAAAUGUAGUUGACGAGGAGGAGGUUUAUCGAAUCUUCGGCGGAUGCCUCCAAA [A6U U55C]
Outgoing: false

Incoming: Next record, please: AUAAAAGCGCCAGAACUACAGAAAUGUAAUUGACGAGGAGGAGGUUUAUCGAAUAUUCGGCGGAUGCCUCCAAA [G29A U55A]
Outgoing: true

Incoming: Can you handle AUAAAAGCGACAGAACUACAGAAAUGUAGUUGACGAGGAGGAGGUUUAUCGAAUUUUCGGGGGAUGCCUCCAAA [C10A C61G] next?
Outgoing: false

Incoming: Would you kindly repeat that for AUAAAAGCGCCAGAACUACAGAAAUGUAGUAGACGAGGCGGAGGUUUAUCGAAUUUUCGGCGGAUGCCUCCAAA [U31A A39C] ?
Outgoing: true

Incoming: How about this variant: AUAAAAGCGCCAGAACUACAGAAAUGUAGUUGACGAGGAGGAGGUUGAUCGAAUUUUCGGCGGGUGCCUCCAAA [U47G A64G]
Outgoing: true

Incoming: What about AUAAAAGCACCAGAACUACAGAAAUGUAGUUGACGACGAGGAGGUUUAUCGAAUUUUCGGCGGAUGCCUCCAAA [G9A G37C] ?
Outgoing: false

Incoming: Quick one: AUAAAAGAGCCAGAACUACAGAAAUGUAAUUGACGAGGAGGAGGUUUAUGGAAUUUUCGGCGGAUACCUGCAAA [C8A G29A C50G G66A C70G]
Outgoing: false

Incoming: // same read-out, input: AUAAAAGCGCCAGAACUACAGAAAUGUAGUUGACGAGGAGCAGGAUUAUCGAAUUUUCGGCGGAUGCCUCCAAA [G41C U45A]
Outgoing: false

Incoming: Try the variant AUAAAAGCGCCAGAACUACAGAAAUGUAGUUGACGAGGAGGAGGUUUAUCGAAUUUUCGGCGGAUGGCCCCAAA [C67G U69C]
Outgoing: true

Incoming: Another variant: AUAAAAGCGCCAGAACUACAGAAAUGUAGUUGACGAGGAGGAGGUUUAUAGAAUUUUCGGCUGAUGCCUCCAAA [C50A G62U]
Outgoing: false

Incoming: What do you get for AUAAAAGCGCCAGAACUACAGAAAUGUAGUUGACGAGCAGGAGGUUUAUCGGAUUUUCGGCGGAUGCCUCCAAA [G38C A52G] ?
Outgoing: false

Incoming: Repeat for the following variant: AUAAAAGCGCCAGAUCUACAGAAAUGUAGUUGACGAGGAGGAGGUUUAUCGAAUUUGUGGCGGAUGCCUACAAA [A15U U57G C58U C70A]
Outgoing: false

Incoming: Same question, AUAAAAGCGCCAGAACUACAGAAAUGUAGUUGACGAGGAGGAGGUUUGUCGAAUUUUCGGCGGAUGCGUCCAAA [A48G C68G] this time
Outgoing: false

Incoming: Could you do the same for AUAAAAGCGCCAGAACUACAGAAAUGUAGUUGUCGAGGAGGAGGUUUAACGAAUUUUUGGCGGAUGCCUCCAAA [A33U U49A C58U] , please?
Outgoing: false

Incoming: And for AUAAAAGCGCCAGUGCUACAGAAAUGUAGUUGAGGAGGAGGAGGUUUAUAGAAUUUUCGGCUGAUGCCUCCAAA [A14U A15G C34G C50A G62U] ?
Outgoing: false

Incoming: Okay, and AUAAAAGCGCCAGAACUACAGAAAUGUAGUUAACGAGGACGAGGUUUAUCGAAUUUUCGGCGGAUGCCUCCAAA [G32A G40C] ?
Outgoing: true

Incoming: Next variant up: AUAAAAGCGCCAAAACUACAGAAAUGUAGUUGACGAGGAGGAGGUUUAUCGAAUUUCCGGCGGAUGCCUCCAAA [G13A U57C]
Outgoing: false

Incoming: Item: AUAAAAGCGCCAGAACUACAGAAAUGUAGUUGACGAGGAGGAGGUUUAGCGAAUUAUCGGCGGAUGCCUCCAAA [U49G U56A]
Outgoing: true

Incoming: Another variant to check: AUAAAAGCGCCAGAAUUACAGAAAUGUAGUUGACGAGGAGGAGGUUUGUCGAAUUUUCGGCGGAUGCCUCCAAA [C16U A48G]
Outgoing: false

Incoming: Proceed to AUAAAAGCGCUAGAACUACAGAAAUGUAGUUGACGAGGAGGAGGGUUAUCGAAUUUUCGGCGGAUGCCUCCAAA [C11U U45G]
Outgoing: true

All values here come from the supplement of paper PMC7125110.
